Consider the following compounds; for each one, report its pIC50.
# Test system: A549 cells
# Protocol: Cell migration assay (24-well transwell, laminin)
# Assay type: cell-based, human
# Condition set: Homo sapiens, A549, 6 h, laminin 10 μg/mL in lower well, test compounds 0.39˜100 μM, migrated cells counted, read-out: Inhibitory activity against cell migration
pIC50: −log10 of the molar value.

**Query** Can you share its pIC50? I mean this compound: COc1cc(F)c(CCN(c2nc3cccc(F)c3s2)C(C)c2ccc(C(=O)O)cc2)c(F)c1 (centres unmarked)
**Result** > 6.00

**Query** COc1ccc(CCN(c2nc3ccc(C)cc3s2)C(C)c2ccc(C(=O)O)cc2)cc1 (centres unmarked) ?
**Result** < 5.00

**Query** Next entry: COc1ccc(CCN(c2nc3cccc(F)c3s2)C(C)c2ccc(C(=O)O)cc2)c(F)c1F (centres unmarked)
**Result** > 6.00

**Query** What about this compound? COc1ccc(CCN(c2nc3cc(F)ccc3s2)C(C)c2ccc(C(=O)O)cc2)cc1 (centres unmarked)
**Result** < 5.00

**Query** Same thing, different compound: "COc1ccc(CCN(Cc2ccc(C(=O)O)cc2)c2nc3ccc(C(F)(F)F)cc3s2)cc1"
**Result** < 5.00

**Query** Let us now turn to COc1ccc(CCN(c2nc3cccc(F)c3s2)C(C)c2ccc(C(=O)O)cc2)cc1C (centres unmarked)
**Result** > 6.00

**Query** // next record "COc1ccc(CCN(Cc2ccc(C(=O)O)cc2)c2nc3cc(C)ccc3s2)cc1"
**Result** < 5.00

**Query** Moving on to CCC(c1ccc(C(=O)O)cc1)N(CCc1cc(C(C)C)c(OC)cc1C)c1nc2cccc(F)c2s1 (centres unmarked)
**Result** < 5.00
